Values from patent US20210292423A1

- study_target: T1, human CD3ε/δ-Fc fusion protein (soluble recombinant CD3ε/δ complex) (human, UniProt P04234 22-105)
- T1 construct: also called huCD3ε/δ; huCD3; not shown: hinge, CH2, CH3 of human IgG with tag
- T1 sequence (chain, as listed by the source mutant, chain 1 of 2): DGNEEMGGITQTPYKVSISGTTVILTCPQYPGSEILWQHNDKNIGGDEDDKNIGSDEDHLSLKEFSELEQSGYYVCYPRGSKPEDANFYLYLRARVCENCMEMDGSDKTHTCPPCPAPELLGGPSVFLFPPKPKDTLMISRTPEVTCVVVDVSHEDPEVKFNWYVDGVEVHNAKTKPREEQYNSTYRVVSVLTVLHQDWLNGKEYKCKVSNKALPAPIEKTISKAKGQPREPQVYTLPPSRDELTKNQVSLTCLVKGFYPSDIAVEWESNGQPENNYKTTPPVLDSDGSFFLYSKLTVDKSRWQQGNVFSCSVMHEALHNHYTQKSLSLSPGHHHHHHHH
- T1 sequence (P04234 22-105, stated change not applied, chain 2 of 2): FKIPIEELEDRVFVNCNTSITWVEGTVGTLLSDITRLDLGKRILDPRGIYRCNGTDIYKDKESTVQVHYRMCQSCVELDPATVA
- test_protocol: SPR single point, hybridoma supernatant

binder	RU at 25 nM (RU)
13C1-F6 anti-CD3 antibody (hybridoma supernatant) (antibody, V domains shown, rat IgG in hybridoma supernatant) VH: EVQLVETGGTLVQPGKSLKLTCATSGFTFSNAWMHWVRQSPEKQLEWVAQIKAKSNNYATYYAESVKGRFTISRDDSKTSVYLQLNSLREEDTAIYYCRGTQYGYNPFDYWGQGVMVTVSS VL: DVVMTQSPVSLSVSLGGQVSISCRSSQSLVHNNGNTYLSWYLQRSGQSPQLLIYKVSNRLSGISDRFSGSGSGTDFTLKISRIEPDDLGVYYCGQGTQYPFTFGSGTRLEIK	17
18H11-F10 anti-CD3 antibody (hybridoma supernatant) (antibody, V domains shown, rat IgG in hybridoma supernatant) VH: EVQLVESGGGLVQPGRSLKLSCAASGFIFSDYYMAWVRQAPKKGLEWVATISISGSRTYYPDSVKGRFTVSRDNAKSSLYLQMNSLKSEDTATYYCATNNPGGWFVYWGQGTLVTVSS VL: NIQMTQSPSLLSASVGDRVTLSCKAGQNINNDLAWYQQKLGEAPRLLIYNANSLQTGIPSRFSGSGSGADFTLTISSLQPEDVATYFCQQYSSGDTFGAGTKLELK	35
11D7-C3 anti-CD3 antibody (hybridoma supernatant) (antibody, V domains shown, rat IgG in hybridoma supernatant) VH: EVQFVETGGSLVQPGKSLKLTCATSGFTFSNAWMHWVRQSPEKQLEWVAQIKAKSNNYATYYAESVKGRFTISRDDSKSSVYLQMNSLKEEDTATYYCRGLYYGLSPSDYWGQGVMVTVSS VL: DVVMTQTPVSLSVSLGGQVSISCRSSQSLVHNNGNTYLSWYLQKPGQSPQLLIYKVSNRFSGISDRFSGSGSGTDFTLKISRVEPDDLGVYYCGQGTHYPFTFGSGTKLEIK	17
13H2-C3 anti-CD3 antibody (hybridoma supernatant) (antibody, V domains shown, rat IgG in hybridoma supernatant; also called 13H2-C2) VH: EEELVETGGSLVQPGKSLKLTCATSGFTFSNAWMHWVRQSPDKQLEWVAQIKAKSNNYATYYAESVKGRFTISRDDSKSSVYLQMNNLKEEDTAIYYCRYVHYGLAPMDAWGQGTSVTVSS VL: DVVMTQTPVSLSVSLGGQVSISCRSSQSLVHNNGNTYLSWYLQKAGQSPQLLIYKVSNRFSGISDRFSGSGSGTDFILKISRVEPDDLGVFYCGQGTQYPFTFGAGTKLELK	16
16F8-A7 anti-CD3 antibody (hybridoma supernatant) (antibody, V domains shown, rat IgG in hybridoma supernatant) VH: VETGGNLVQPGKSLKLTCATSGFTFSNAWMHWVRQSPEKQLEWVAQIKAKSNNYATYYAESVKGRFTISRDDSKSSVYLQMNSLKEEDTAIYYCRYVNYGLAPMDVWGQGTSVTVSS VL: DVVMTQTPVSLSVSLGGQVSISCRSSQSLVHNNGNTYLSWYLQKPGQSPQLLIYKVSNRFSGFSDRFSGSGSGTDFTLKISRVEPDDLGVYYCGQGTQYPFTFGAGTKLELK	17.5
3H6-D2 anti-CD3 antibody (hybridoma supernatant) (antibody, V domains shown, rat IgG in hybridoma supernatant) VH: EVQLVETGGRLVQPGKSLKLTCATSGFTFSNAWMHWVRQSPEKQLEWVAQIKDKSNNYATYYAESVKGRFTISRDDSKSIIYLQMNSLKEEDTAIYYCRALTYYGYKRDAMDGWGHGTSVTVSS VL: DVVMTQTPVSLSVSLGGQVSISCRSSQSLVHNNGNTYLSWYLQKPGQSPQLLIYKVSNRFSGISDRFSGSGSGTDFTLKISRVEPDDLGVYYCGQGTQYPFTFGAGTKLELK	9.5
4B4-D7 anti-CD3 antibody (hybridoma supernatant) (antibody, V domains shown, rat IgG in hybridoma supernatant) VH: EVQLVETGGRLVQPGRSLKLTCATSGFTFSNAWMHWVRQSPEKQLEWVAQIKARSNNYATYYAESVKGRFTISRDDSKSTIYLQMNSLKEEDTAIYYCRGTYYASKPFDYWGQGVMVTVSS VL: DVVMTQTPVSLSVSLGGQVSISCRSSQSLVHDNGNTYLSWSLQRPGQSPQVLIYKVSNRFSGTSDRFTGSGSGTDFTLKISRVEPDDLGVYYCGQGTQYPFTFGSGTKLEIK	11
